Target: purified recombinantly expressed human SSAO (Homo sapiens (Human))
Sequence (Q16853 29-763): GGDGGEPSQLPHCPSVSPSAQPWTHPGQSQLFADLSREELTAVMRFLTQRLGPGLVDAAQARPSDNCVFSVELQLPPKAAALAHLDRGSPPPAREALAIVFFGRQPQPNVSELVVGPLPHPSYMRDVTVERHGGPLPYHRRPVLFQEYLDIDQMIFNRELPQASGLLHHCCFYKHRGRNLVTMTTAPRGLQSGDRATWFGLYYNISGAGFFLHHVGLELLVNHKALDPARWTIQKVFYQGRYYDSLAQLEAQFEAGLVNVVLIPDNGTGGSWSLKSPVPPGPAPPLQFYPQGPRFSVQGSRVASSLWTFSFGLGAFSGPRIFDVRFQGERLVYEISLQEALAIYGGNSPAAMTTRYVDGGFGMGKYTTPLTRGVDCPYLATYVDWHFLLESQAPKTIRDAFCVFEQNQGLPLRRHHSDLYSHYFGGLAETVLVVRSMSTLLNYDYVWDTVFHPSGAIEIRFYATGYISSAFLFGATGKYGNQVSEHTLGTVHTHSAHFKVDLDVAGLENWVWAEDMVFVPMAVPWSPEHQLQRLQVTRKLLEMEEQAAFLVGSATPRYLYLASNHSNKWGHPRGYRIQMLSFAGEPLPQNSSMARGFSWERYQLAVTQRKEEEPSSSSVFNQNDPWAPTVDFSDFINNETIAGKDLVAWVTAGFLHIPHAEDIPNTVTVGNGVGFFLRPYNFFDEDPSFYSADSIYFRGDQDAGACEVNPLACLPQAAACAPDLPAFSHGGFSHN
Test: SSAO enzyme inhibition assay (HRP-coupled Amplex Red, benzylamine substrate)
Settings: benzylamine 100 μM, approximately 60 minutes pre-incubation, pH 7.4, room temperature
pIC50: −log10 of the molar value.
measurement-type: pIC50

| compound | pIC50 |
| --- | --- |
| CC(C)C1c2[nH]cnc2CCN1C(=O)OCc1cccnc1 (stereo not drawn) [Example 7] | 7.47 |

(A) CC(C)C1c2[nH]cnc2CCN1C(=O)OCCOc1ccccc1 (stereo not drawn) [Example 14]
(B) CC(C)C1c2[nH]cnc2CCN1C(=O)OCC1CCOC1 (stereo not drawn) [Example 17]
# input Which has the higher pIC50, A or B ? # answer = label of selected item
# output A

The measured values listed here are drawn from patent US8569338B2.
